Measured growth inhibition by item
# ASSAY PROTOCOL: NCI Yeast Anticancer Drug Screen. Data for the rad50 strain (AID 155);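 also: 0% = growth of vehicle-only cultures of the same strain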
# MEASUREMENT PARAMETERS: S. cerevisiae rad50 strain growth inhibition; at 50.0 µM; stronger effect = higher value
This is part of a sample that, as a whole, favours compounds with a hit. Of some 79,000 tested, about 15% had one in any assay.
// return numeric value only (unit: %, not printed)

Reference set (10 entries):
Would you mind telling me what growth inhibition value was observed for `COc1ccc(-n2c(CCCC(=O)O)nc3c2C(=O)c2ccccc2C3=O)cc1` ?
20.4

May I ask what growth inhibition has been recorded for `CCOC(=O)c1ccc(N2C(=S)N(C(=O)c3ccccc3)C(=Nc3ccccc3)C2=Nc2ccccc2)cc1` ?
11.2

Please report the recorded growth inhibition for `COc1cc(NCCCCCCCNC(C)C)c2nccc(C)c2c1` .
26.7

Requested read-out: growth inhibition. Entry: `ClCC1CCN(Cc2ccccc2)CC1`
-4.5

Which value of growth inhibition has been reported for `Cc1cc(C)c(C(=O)O)c(C)c1Br` in the records?
-3

# lookup: growth inhibition of CCSC1C(N=[N+]=[N-])C(CO)OC1n1cnc2c(N)ncnc21 (stereo not given)
1.3

Sample CCCC(=O)C(N)Cc1ccc(O)cc1 (stereo not given) — what was its growth inhibition?
-16.6

For `CCOc1nc(OCC)c2cnn(C)c2n1` , what is its reported growth inhibition?
6.3

# input compound: `O=C(O)c1cccc(NC(=O)C(F)(F)F)c1` ; wanted: its growth inhibition
-1.1

Reported growth inhibition for `Cc1ccc(Cl)cc1NC(=O)Oc1ccc(Cl)cc1C` : what is it?
23.2

Continuing:
I would be grateful if you could share the reported growth inhibition for `C[Si](Cn1ccc(=O)n(C[Si](C)(c2ccccc2)c2ccccc2)c1=O)(c1ccccc1)c1ccccc1` .
-3.7

Any idea what its growth inhibition is? The compound is C1OCC(C2OCOC2C2OCOC2C2COCO2)O1 (stereo not given)
7.8

Requested read-out: growth inhibition. Entry: `O=[N+]([O-])/C(C(Cl)=C(Cl)Cl)=C1\NCCS1`
39.7

What does the data say about its growth inhibition? Entry: `O=C1CCN(C(=O)C2=CC(=O)OC2)C1`
-15.2

Quick one: growth inhibition for `Brc1ccccc1-c1nc2ccccc2[nH]1` ?
4.1

growth inhibition for `CC1(C)CC2(CC3(C1)SCCS3)SCCS2` ?
-11.2

For the compound shown here, `O=C(c1ccccc1)c1ccccc1-c1nc2ccccc2c(=O)o1` , give the reported growth inhibition.
11.8

Bench note: what growth inhibition did `CCOC(=O)N1c2ccccc2S(=O)(=O)c2ccccc21` show?
40.5

I am curious: what growth inhibition value has been reported for OCC(O)C(O)C(O)C(Sc1ccccc1)Sc1ccccc1 (stereo not given) ?
7.15

Would you kindly share the measured growth inhibition for Cc1ccc(S(=O)(=O)C(c2ccccc2)C(Br)C(=O)c2ccccc2)cc1 (stereo not given) ?
-0.25

Value lookup for growth inhibition; key = CC12CCC(=O)C=C1CCC1C2CCC2(C)C1CCC2(O)C(=O)Cn1c(=O)cc[nH]c1=O (stereo not given)
10.3

# input compound: `CCCCCCCCCCOc1ccc(C=NC/C=C/c2ccc(CC)cc2)cc1` ; wanted: its growth inhibition
-19.4

If you can, please state the reported growth inhibition value of `O=C1/C(=C/c2ccc3c(c2)OCO3)CC/C1=C\c1ccc2c(c1)OCO2` .
-10.2

Request the reported growth inhibition associated with `O=C(NCCCl)c1ccc(F)cc1`
-21.2

Which measured growth inhibition value corresponds to `CCOC(=O)N/N=C(\Cc1ccccc1)OCC` ?
16

The measurements presented in this section are drawn from PubChem BioAssay (NCI).
